Cited source: PubChem BioAssay AID1508600

experiment: Components of the Cytosolic LPS Sensing Pathway: Gene Identification via Genome-wide siRNA Screen; settings: RAW264.7 macrophages, IL-1a HTRF, actives lie on both sides, screened at 100 nM (by protocol), cells primed 5 h with Pam3CSK4 first;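 note: robust z of the log signal after scaling to non-targeting control siRNA wells of the plate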
The campaign covered roughly 53,000 sequences. About 3,700 (7%) were called active. Shown is part of a subset that was picked to be rich in actives.
In this section, each of the sequences is paired with its reported z-score.

Chain: CCUUCUUUAUAGGUAUGACTT against Klhl36
z-score: 0.91 (inactive)
--
Chain: CGCGAGGUCUUCGAAAGAATT against Siva1
z-score: -0.884 (inactive)
--
Chain: GCAAAUCAGUCUAUCGCUGTT against Mcpt8
z-score: 0.39 (inactive)
--
Chain: CCAUAAUUCAGCUAGACCUTT against Axin1
z-score: 0.201 (inactive)
--
Chain: GGCAAAGGCUAUCGCUCACTT against Smpd2
z-score: -1.46 (inactive)
--
Chain: CCAAGACUCUUUAUUCAACTT against Rasip1
z-score: 0.774 (inactive)
--
Chain: GGCUUUUAGUACUGAUAGUTT against Neu3
z-score: 2.6 (active)
--
Chain: CGUAUUGCCUUAGUGUAUGTT against Olfr433
z-score: -2.7 (active)
--
Chain: GGUCCUUAACCGCUAUGCATT against Esrp2
z-score: 0.294 (inactive)
--
Chain: GCCUCUGAAAGUGUAAUUATT against Ccdc103
z-score: 0.184 (inactive)
--
Chain: GGUGAUGUCAAGAGUUUUCTT against Hacd2
z-score: 3.56 (active)
--
Chain: CGUGUGUUCCGGAAACAGATT against Tnfrsf11b
z-score: -0.188 (inactive)
--
Chain: CCAAGAUUGACAUCAUCCGTT against Pkn1
z-score: -0.595 (inactive)
--
Chain: GGUGGACCUGAAACGUAGCTT against Inhbb
z-score: 0.878 (inactive)
--
Chain: GGAUGUCUAGUUAUACAUUTT against Mbd3l1
z-score: 1.21 (inactive)
--
Chain: GGACGAUUCUUUUAUUUGATT against Fam78b
z-score: -1.22 (inactive)
--
Chain: CCCACAGAACCACACAUUCTT against H2-DMa
z-score: 3.11 (active)
--
Chain: GGUGAAGAAGGAGACAAAGTT against Tmem43
z-score: 0.347 (inactive)
--
Chain: GCCUUACAUGAGCCCAUGUTT against Olfr550
z-score: -1.96 (inactive)
--
Chain: GGAAGCUCUUAAAAGGUUGTT against Hdhd2
z-score: 0.226 (inactive)
--
Chain: GGCAUUAGGAUACAUAACATT against Rpgrip1l
z-score: -0.743 (inactive)
--
Chain: CCUGCUGGGAUUUAUUCAATT against Pmvk
z-score: 2.52 (active)
--
Chain: GGACCGAUUCCACUUCAAUTT against Crygd
z-score: 1.46 (inactive)
--
Chain: GGUAACAUACUAAAAGAAGTT against Vmn2r10
z-score: -1.21 (inactive)
--
Chain: GGGCAAGUACAAGCGUAACTT against Jph4
z-score: -1.5 (inactive)

----------
assay: Components of the Cytosolic LPS Sensing Pathway: Gene Identification via Genome-wide siRNA Screen; conditions: RAW264.7 macrophages, IL-1a HTRF, actives lie on both sides, screened at 100 nM (by protocol), cells primed 5 h with Pam3CSK4 first;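 note: robust z of the log signal after scaling to non-targeting control siRNA wells of the plate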
Hit rate of the full screen: of about 53,000 sequences, about 3,700 (7%) were called active. The full list was thinned out, with actives kept by preference.
Metric Name: z-score

Chain: GGGCUUUGCUGUCUAUGCATT against Dmwd
Numeric Value: -0.617

Chain: GGAGAAAAAAUUCUUAUCCTT against Prmt2
Numeric Value: -0.31

Chain: GGCACUGUUCUCAUCUGUGTT against Olfr736
Numeric Value: -2.41

Chain: GCCAAUGAGAGUAGGAAAGTT against Elovl3
Numeric Value: 1.43

Chain: GGAUAUACAAAGGAACGCATT against Wdr20rt
Numeric Value: -0.862

Chain: GGAUAUUCCUGGACUGACATT against Rps6
Numeric Value: -0.996

Chain: GGUAGAGCAUCAGUAUCUATT against Tex16
Numeric Value: -0.47

Chain: GGGAGAAGGUGGAAAUACUTT against Hdgfl3
Numeric Value: 1.63

Chain: GGGUUAGGAUACCUCGACUTT against Arnt2
Numeric Value: -2.5

Chain: CCCUACUGUAUUAGAAAACTT against Dnph1
Numeric Value: 2.1

Chain: GGCUGCUGACAUUUUCAUCTT against Lrrc28
Numeric Value: 1.53

Chain: GGUACCAAUUGAAGAUAUATT against Ncoa7
Numeric Value: 2.2

Chain: GGACCCUGCUUUUUAAAAATT against Harbi1
Numeric Value: 0.293

Chain: GCUUUAAACUGAGUGAUAATT against Zfp451
Numeric Value: -0.564

Chain: CGCAUUACAUUAGCCAAAATT against Ttc28
Numeric Value: 1.21

Chain: GGCAUUCAGAGCUGAUUCATT against Mia3
Numeric Value: 0.93

Chain: GCGAGAAAUUACCACCUUCTT against Klhl8
Numeric Value: -0.516

Chain: GGCAAUACUGGAAGGGUGUTT against Eps15
Numeric Value: -1.03

Chain: GGACUUUCUUAACUACACUTT against Slc2a3
Numeric Value: 0.865

Chain: CCAGUUACUAGUAAUACUCTT against Mcm3ap
Numeric Value: -0.0482

Chain: GGAAUUUCUUCAGGACACUTT against Procr
Numeric Value: 0.278

Chain: GGAGUUCAUUGUUUGGUUGTT against Nat2
Numeric Value: 0.593

Chain: GGAUUGUGCAGAGCAUCUGTT against Card14
Numeric Value: -1.45

Chain: GCUUGAAUGGAGCGAAUCGTT against Chat
Numeric Value: 4.86

Chain: GGAACUUGUUUCAUAUCGUTT against Scfd1
Numeric Value: 0.839

Chain: CGCAUACUGAUGAUAACUATT against Zfp317
Numeric Value: 2.12

Chain: GGUUGCACUCAUCUUAAAATT against Zfp9
Numeric Value: 1.59

Chain: GGUGUAACUGGGCUGCAUGTT against Avpi1
Numeric Value: 0.269

Chain: GGAGCUCUCGAAGGAUUGUTT against Eda2r
Numeric Value: -0.768

Chain: CCGAAGCCUUGAAAGCAGUTT against Shq1
Numeric Value: 0.302

Chain: GGAGAUGAUUUCCUACUUCTT against Rasgrp2
Numeric Value: 3.47

Chain: GGUGCUGAGGCUGAUUCUCTT against Capn15
Numeric Value: 3.35

Chain: GGUAGAGAUCAUCAAUGCATT against Ggt5
Numeric Value: 0.0858

Chain: CGGAUCUGAGAUAAAGACGTT against Arsj
Numeric Value: 1

Chain: GGCACGUCUGGACAACAUCTT against Cd22
Numeric Value: -0.707

Chain: GGAGAUGUAACCAUAGGCCTT against Dctn6
Numeric Value: 2.07

Chain: CCCUCGUCUGAAAUGGAAATT against Nploc4
Numeric Value: -2.02

Chain: GGCAAAUUCGAAAUAGACATT against Evx2
Numeric Value: 0.227

Chain: GGCAAACCUGCUUCUGCUATT against Prss52
Numeric Value: -1.27

Chain: GGUCACCAGUACCUAUGGATT against Bricd5
Numeric Value: -2.17

Chain: GCUUCAGUGGCUACUCUUGTT against H2-M2
Numeric Value: 0.63

Chain: GCCUACGUUACCUUGAUCCTT against Slc16a12
Numeric Value: 0.0774

Chain: GGAUGCUCAUGCUAAGCAGTT against Krt7
Numeric Value: 0.547

Chain: GCCCGAUAUUAUAACGGUGTT against Eomes
Numeric Value: 2.97

Chain: GGGUCUACAAUCACCAGACTT against Wnt10a
Numeric Value: 1.15

Chain: GGAUCUUUCGUGUGGAAAATT against Atf7ip
Numeric Value: 0.87

Chain: GGCCAGAUGACCUUGUCAUTT against Sult1e1
Numeric Value: -1.23

Chain: GGUGAAUACUUCAGAUACATT against Sult2b1
Numeric Value: -0.362

Chain: GGAGAAGAAAAAGAAGGACTT against Pak1
Numeric Value: -0.932

Chain: GGUGCCCAUAAUAGCCAUCTT against Polr2c
Numeric Value: -1.02
